# System under test: T1, human CD19 on CHO-K1-human CD19 cells (human, UniProt P15391 20-556)
# T1 construct: whole, on cells; also called CHO-K1-human CD19-2C8
# T1 sequence (looked up): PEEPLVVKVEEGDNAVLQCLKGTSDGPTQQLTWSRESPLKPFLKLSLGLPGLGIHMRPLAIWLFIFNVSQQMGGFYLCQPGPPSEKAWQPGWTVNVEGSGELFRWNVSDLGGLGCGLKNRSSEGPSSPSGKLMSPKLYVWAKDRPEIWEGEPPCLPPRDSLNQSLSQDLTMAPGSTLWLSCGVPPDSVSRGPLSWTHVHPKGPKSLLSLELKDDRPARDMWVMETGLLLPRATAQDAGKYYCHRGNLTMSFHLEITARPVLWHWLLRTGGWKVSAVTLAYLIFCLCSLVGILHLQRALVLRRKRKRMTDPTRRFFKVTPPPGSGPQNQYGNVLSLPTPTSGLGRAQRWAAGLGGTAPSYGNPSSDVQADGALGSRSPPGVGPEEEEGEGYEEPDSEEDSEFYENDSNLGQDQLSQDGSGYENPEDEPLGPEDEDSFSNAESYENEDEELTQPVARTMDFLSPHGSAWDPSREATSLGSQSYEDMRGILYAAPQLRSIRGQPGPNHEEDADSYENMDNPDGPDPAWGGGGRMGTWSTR
# Method summary: FACS on CHO-K1-human CD19 cells
Let's look at some binders and their measured Maximum mean fluorescence intensity.
Reply with the value as a number alone.

Examples from the recorded data:
binder="F3.114.12 (antibody, human IgG1, V domains shown, human-murine chimeric antibody, human IgG1) VH: DVQLQESGPGLVKPSQSLSLTCSVTGYSITSGYDWNWIRQFPGNKLEWMGYISYDGKNNYNPSLRNRISITRDTSKNQFFLKLNSVTTEDTATYYCARRDLRGYFDVWGTGTTVTVSS VL: DIVLTQSPATLSVTPGDRVSLSCRASQSISNYLHWYQQKSHESPRLLIKYASLSISGIPSRFSGSGSGTDFTLSINSVETEDFGVYFCQQSNSWPLTFGAGTKLELK" reading=50400
binder="F4.48.12 (antibody, human IgG1, V domains shown, human-murine chimeric antibody, human IgG1) VH: QMQLKESGPGLVAPSQSLSITCTVSGFSLTDYGVSWIRQPPGKGLEWLGVIWGSGSTFYNSALTSRLSISKDNSKSQVFLKMNSLQTADTAMYFCAKHHYYGGSFAMDYWGQGTSVTVSS VL: DIQMTQASSSLSASLGDRVTISCKTSQDISNYLNWYQQKPDGTFKLLIHYTSRLHSGVPSRFSGSGSGSDYSLTISNLEREDIATYFCQQGNSLPYTFGGGTKLEMK" reading=52700

Now take the following binder into account.
Short answer for F4.272.13 (antibody, human IgG1, V domains shown, human-murine chimeric antibody, human IgG1) VH: QVQLKESGPGLVAPSQSLSITCTVSGFSLTDYGVSWIRQPPGKGLEWLGVIWGSETTFYNSALKSRLSISKDNSKSQLFLQMNSLQADDTAIYYCAKHHYYGGSFSMDYWGQGTSVTVSS VL: DIQMTQTTSSLSASLGDRVTISCRASQDINNYLNWYQQKPDGTVKFLIYYTSRLHSGVPSRFSGSGSGTDYSLTISDLEQEDIATYFCQQGNTLPYTFGGGTKLEIK : Maximum mean fluorescence intensity was 55300
